assayedSystem: UniProtKB P06401
Sequence (P06401 whole entry): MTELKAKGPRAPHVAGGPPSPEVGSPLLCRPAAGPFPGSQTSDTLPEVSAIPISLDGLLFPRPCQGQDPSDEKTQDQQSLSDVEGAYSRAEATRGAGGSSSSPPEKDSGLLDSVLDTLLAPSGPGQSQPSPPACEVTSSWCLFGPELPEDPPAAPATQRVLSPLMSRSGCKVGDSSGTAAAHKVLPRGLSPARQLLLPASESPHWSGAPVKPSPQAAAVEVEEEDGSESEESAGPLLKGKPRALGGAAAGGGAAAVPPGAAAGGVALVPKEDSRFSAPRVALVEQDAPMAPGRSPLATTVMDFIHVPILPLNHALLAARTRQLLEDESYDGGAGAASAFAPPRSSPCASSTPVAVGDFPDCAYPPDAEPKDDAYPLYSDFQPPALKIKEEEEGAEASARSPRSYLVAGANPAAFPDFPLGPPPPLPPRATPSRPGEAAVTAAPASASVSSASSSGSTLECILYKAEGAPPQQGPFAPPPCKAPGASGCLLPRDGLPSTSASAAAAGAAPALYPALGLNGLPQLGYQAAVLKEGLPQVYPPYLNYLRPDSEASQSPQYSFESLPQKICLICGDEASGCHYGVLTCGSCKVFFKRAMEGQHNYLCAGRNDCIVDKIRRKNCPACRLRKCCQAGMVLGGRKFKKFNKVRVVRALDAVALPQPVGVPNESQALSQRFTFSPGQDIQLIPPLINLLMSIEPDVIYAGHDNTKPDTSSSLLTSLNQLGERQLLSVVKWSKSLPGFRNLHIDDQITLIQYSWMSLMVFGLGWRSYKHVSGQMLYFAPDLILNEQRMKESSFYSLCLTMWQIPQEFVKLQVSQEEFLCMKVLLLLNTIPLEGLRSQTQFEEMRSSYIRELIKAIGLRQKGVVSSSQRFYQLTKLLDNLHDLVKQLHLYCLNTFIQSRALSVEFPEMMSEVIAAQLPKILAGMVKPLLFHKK
experimentNotes: Antagonist activity at human PR expressed in human T47D cells assessed as inhibition of progesterone induced alkaline phosphatase
Type: functional, cell-based
Some compounds, each annotated with its measured pIC50.
Reminder that pIC50 means the negative base-10 logarithm of the concentration expressed in mol/L.

Worked cases, pIC50 given:
Item CC(=O)OCN1C(=O)C(C)(C)c2cc(-c3ccc(C#N)n3C)cc(F)c21 has what recorded pIC50?
7.32

Item Cn1c(C#N)ccc1-c1cc2c(cc1F)NC(=O)C2(C)C has what recorded pIC50?
7.69

Item Cn1c(C#N)ccc1-c1ccc2c(c1)CC(=O)N2 has what recorded pIC50?
7.70

Field: next compound
Item CN1C(=O)C(C)(C)c2cc(-c3ccc(C#N)n3C)cc(F)c21 has what recorded pIC50?
7.82
